Experimental Protocol: Solubility of the compound in 20% SBE beta-cyclodextrin at pH 6
Assay type: physicochemical
Reported Metric: solubility (µg/mL)

Examples with their reported solubility follow.
>  <Smi>
C[C@@H](Oc1cc(-n2cnc3cc(-c4cnn(CCN5CCOCC5)c4)ccc32)sc1C(N)=O)c1ccccc1Cl

>  <solubility (µg/mL)>
530

$$$$
>  <Smi>
C[C@@H](Oc1cc(-n2cnc3cc(-c4ccnc(N)n4)ccc32)sc1C(N)=O)c1ccccc1C(F)(F)F

>  <solubility (µg/mL)>
200

$$$$

P = CCN1CCN(CCCn2cc(-c3ccc4c(c3)ncn4-c3cc(O[C@H](C)c4ccccc4Cl)c(C(N)=O)s3)cn2)CC1
Q = C[C@@H](Oc1cc(-n2cnc3cc(-c4cnn(CCN5CCN(C)CC5)c4)ccc32)sc1C(N)=O)c1ccccc1Cl
**Q:** Would you let me know which has the greater solubility value, P or Q ? Returns: label corresponding to the selected item.
**A:** Q
(Q: 4550 µg/mL, P: 3120 µg/mL)

---

Experimental Protocol: Solubility of the compound in 20% SBE beta-cyclodextrin at pH 6
Type: physicochemical
Reported Metric: solubility (µg/mL)

>  <Smi>
C[C@@H](Oc1cc(-n2cnc3cc(-c4cnn(CCCN(C)C)c4)ccc32)sc1C(N)=O)c1ccccc1Cl

>  <solubility [µg/mL]>
5830

$$$$

A = C[C@@H](Oc1cc(-n2cnc3cc(-c4ccnc(NCCS(C)(=O)=O)c4)ccc32)sc1C(N)=O)c1ccccc1Cl
B = C[C@@H](Oc1cc(-n2cnc3cc(-c4cnn(C)c4)ccc32)sc1C(N)=O)c1ccccc1Cl
**Q:** When A and B are compared, which has the higher number for solubility? Indicate your choice by writing its label.
**A:** B
(B: 100 µg/mL, A: 30 µg/mL)

---

Experimental Protocol: Clearance in iv dosed mouse
Type: ADME, organism-based
Run Conditions: in vivo
Reported Metric: clearance (mL/min/kg)

Reference set, count: 2
>  <Smi>
C[C@@H](Oc1cc(-n2cnc3cc(-c4ccncc4)ccc32)sc1C(N)=O)c1ccccc1Cl

>  <clearance (mL/min/kg)>
70

$$$$
>  <Smi>
C[C@@H](Oc1cc(-n2cnc3cc(-c4ccnc(N)c4)ccc32)sc1C(N)=O)c1ccccc1C(F)(F)F

>  <clearance (mL/min/kg)>
38

$$$$

I = C[C@@H](Oc1cc(-n2cnc3cc(-c4ccc(NC5CCN(C)CC5)nc4)ccc32)sc1C(N)=O)c1ccccc1Cl
II = C[C@@H](Oc1cc(-n2cnc3cc(-c4ccnc(N5CCN(C)CC5)c4)ccc32)sc1C(N)=O)c1ccccc1C(F)(F)F
III = C[C@@H](Oc1cc(-n2cnc3cc(-c4cnn(CCN5CCOCC5)c4)ccc32)sc1C(N)=O)c1ccccc1Cl
IV = C[C@@H](Oc1cc(-n2cnc3cc(-c4cnn(CCN5CCN(C)CC5)c4)ccc32)sc1C(N)=O)c1ccccc1Cl
**Q:** List items by clearance in falling order. Dear reader, please state the labels in the requested order.
**A:** III, IV, II, I

---

Experimental Protocol: Solubility of the compound in 20% SBE beta-cyclodextrin at pH 6
Assay type: physicochemical
Reported Metric: solubility (µg/mL)

Sample records with solubility:
>  <Smi>
C[C@@H](Oc1cc(-n2cnc3cc(-c4ccnc(NCCN(C)C)c4)ccc32)sc1C(N)=O)c1ccccc1C(F)(F)F

>  <Value Unit>
µg/mL

>  <Measurement>
3230

$$$$
>  <Smi>
C[C@@H](Oc1cc(-n2cnc3cc(-c4ccc(NC5CCN(C)CC5)nc4)ccc32)sc1C(N)=O)c1ccccc1Cl

>  <Value Unit>
µg/mL

>  <Measurement>
2930

$$$$
>  <Smi>
C[C@@H](Oc1cc(-n2cnc3cc(-c4ccnc(NC5CCN(C)CC5)c4)ccc32)sc1C(N)=O)c1ccccc1Cl

>  <Value Unit>
µg/mL

>  <Measurement>
1050

$$$$
>  <Smi>
C[C@@H](Oc1cc(-n2cnc3cc(-c4ccnc(N)c4)ccc32)sc1C(N)=O)c1ccccc1C(F)(F)F

>  <Value Unit>
µg/mL

>  <Measurement>
1000

$$$$

A = C[C@@H](Oc1cc(-n2cnc3cc(-c4ccnc(N5CCN(C)CC5)c4)ccc32)sc1C(N)=O)c1ccccc1C(F)(F)F
B = C[C@@H](Oc1cc(-n2cnc3cc(-c4ccncc4)ccc32)sc1C(N)=O)c1ccccc1Cl
C = C[C@@H](Oc1cc(-n2cnc3cc(-c4ccnc(N5CCN(C)CC5)c4)ccc32)sc1C(N)=O)c1ccccc1Cl
D = C[C@@H](Oc1cc(-n2cnc3cc(-c4ccnc(NCCO)c4)ccc32)sc1C(N)=O)c1ccccc1Cl
**Q:** Put the molecules in ascending order of solubility. Answer by naming the labels in the order asked.
**A:** B, D, C, A

---

Experimental Protocol: Clearance in iv dosed mouse
Format: ADME, organism-based
Run Conditions: in vivo
Reported Metric: clearance (mL/min/kg)

Worked cases, answers included:
>  <Smi>
C[C@@H](Oc1cc(-n2cnc3cc(-c4ccnc(NCCN(C)C)c4)ccc32)sc1C(N)=O)c1ccccc1C(F)(F)F

>  <Measurement>
62

$$$$
>  <Smi>
C[C@@H](Oc1cc(-n2cnc3cc(-c4cnn(CCCN(C)C)c4)ccc32)sc1C(N)=O)c1ccccc1Cl

>  <Measurement>
44

$$$$
>  <Smi>
C[C@@H](Oc1cc(-n2cnc3cc(-c4ccnc(NCCO)c4)ccc32)sc1C(N)=O)c1ccccc1Cl

>  <Measurement>
109

$$$$
>  <Smi>
C[C@@H](Oc1cc(-n2cnc3cc(-c4ccnc(NC5CCN(C)CC5)c4)ccc32)sc1C(N)=O)c1ccccc1Cl

>  <Measurement>
48

$$$$
>  <Smi>
C[C@@H](Oc1cc(-n2cnc3cc(-c4ccnc(N5CCN(C)CC5)c4)ccc32)sc1C(N)=O)c1ccccc1Cl

>  <Measurement>
52

$$$$

a = C[C@@H](Oc1cc(-n2cnc3cc(-c4cnn(C)c4)ccc32)sc1C(N)=O)c1ccccc1Cl
b = CCN1CCN(CCCn2cc(-c3ccc4c(c3)ncn4-c3cc(O[C@H](C)c4ccccc4Cl)c(C(N)=O)s3)cn2)CC1
**Q:** Of a and b , which one carries the higher reported clearance? Kindly give the label for the entry you pick.
**A:** b

Measured values drawn from ChEMBL document CHEMBL1208730 for this set.
